Assignment: determine reported IC50 for the given compounds.
# SYSTEM: recombinant human integrin αVβ6 (Homo sapiens (Human), UniProt P06756+P18564)
# Sequence (P06756 31-992): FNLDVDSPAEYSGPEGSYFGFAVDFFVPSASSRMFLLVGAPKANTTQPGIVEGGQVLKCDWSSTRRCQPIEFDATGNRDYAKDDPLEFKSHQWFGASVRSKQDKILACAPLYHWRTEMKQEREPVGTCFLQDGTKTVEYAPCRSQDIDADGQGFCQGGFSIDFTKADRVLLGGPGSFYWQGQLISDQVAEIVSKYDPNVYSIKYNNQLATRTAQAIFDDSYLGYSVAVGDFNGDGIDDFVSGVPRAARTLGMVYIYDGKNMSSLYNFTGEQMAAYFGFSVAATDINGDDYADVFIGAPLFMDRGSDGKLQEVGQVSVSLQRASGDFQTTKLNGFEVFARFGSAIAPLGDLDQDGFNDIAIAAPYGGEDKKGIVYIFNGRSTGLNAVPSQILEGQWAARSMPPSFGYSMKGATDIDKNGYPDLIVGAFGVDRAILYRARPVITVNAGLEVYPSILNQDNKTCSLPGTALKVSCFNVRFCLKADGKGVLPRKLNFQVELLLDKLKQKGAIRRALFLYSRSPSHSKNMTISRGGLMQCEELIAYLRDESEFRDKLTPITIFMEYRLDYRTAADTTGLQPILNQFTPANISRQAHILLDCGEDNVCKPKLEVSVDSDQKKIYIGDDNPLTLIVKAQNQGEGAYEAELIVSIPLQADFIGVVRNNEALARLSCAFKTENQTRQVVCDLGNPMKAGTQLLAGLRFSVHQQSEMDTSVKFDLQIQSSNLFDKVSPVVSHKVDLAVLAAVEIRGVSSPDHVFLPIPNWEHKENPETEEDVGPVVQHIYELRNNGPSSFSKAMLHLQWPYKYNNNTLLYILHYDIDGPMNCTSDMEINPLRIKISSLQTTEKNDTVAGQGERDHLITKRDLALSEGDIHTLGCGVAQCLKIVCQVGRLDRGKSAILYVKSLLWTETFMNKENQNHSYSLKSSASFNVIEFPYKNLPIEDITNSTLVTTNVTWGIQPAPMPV
# Sequence (P18564 22-707): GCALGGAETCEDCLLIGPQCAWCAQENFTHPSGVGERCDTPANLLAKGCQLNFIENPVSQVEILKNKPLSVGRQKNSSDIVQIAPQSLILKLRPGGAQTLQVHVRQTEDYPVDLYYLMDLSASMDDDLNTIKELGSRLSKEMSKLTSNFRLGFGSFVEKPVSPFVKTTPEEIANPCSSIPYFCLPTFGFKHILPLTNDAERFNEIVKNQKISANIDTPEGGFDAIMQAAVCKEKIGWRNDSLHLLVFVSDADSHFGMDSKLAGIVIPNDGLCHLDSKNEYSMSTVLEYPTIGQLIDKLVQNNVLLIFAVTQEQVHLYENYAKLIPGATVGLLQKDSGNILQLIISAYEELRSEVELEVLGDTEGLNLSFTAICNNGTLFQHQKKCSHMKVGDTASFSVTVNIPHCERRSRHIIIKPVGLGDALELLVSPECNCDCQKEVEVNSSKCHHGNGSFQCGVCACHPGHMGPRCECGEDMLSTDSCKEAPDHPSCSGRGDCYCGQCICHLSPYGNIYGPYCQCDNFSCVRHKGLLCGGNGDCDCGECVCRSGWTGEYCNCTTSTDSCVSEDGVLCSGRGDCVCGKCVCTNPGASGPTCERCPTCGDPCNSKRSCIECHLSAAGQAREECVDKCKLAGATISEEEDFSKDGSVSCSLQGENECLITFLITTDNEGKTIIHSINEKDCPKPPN
# TEST: Solid phase integrin αVβ6 binding assay
# CONDITION: inhibition of recombinant TGFβ1 LAP binding to coated integrin, IC50 presented in four ranges, read-out: αvβ6 Inhibition IC50 (nM) - range

Exercise: API: value(readout= IC50, system= recombinant human integrin αVβ6 (Homo sapiens (Human), UniProt P06756+P18564), query= O=C(O)[C@H](CCN(CCCCc1ccc2c(n1)NCCC2)CC(F)F)Nc1ccnc(C(F)(F)F)n1 )
Solution: > 1000 nM

Exercise: Reported IC50 for recombinant human integrin αVβ6 (Homo sapiens (Human), UniProt P06756+P18564), given O=C(O)[C@H](CCN(CCCCc1ccc2c(n1)NCCC2)CCOc1ccccc1)Nc1ncc(Br)cn1 ?
Solution: < 50 nM

Exercise: recombinant human integrin αVβ6 (Homo sapiens (Human), UniProt P06756+P18564) / IC50 / O=C(O)[C@H](CCN(CCCCc1ccc2c(n1)NCCC2)CC(F)F)Nc1ncnc2[nH]ncc12 : value?
Solution: 250 to 1000 nM

Exercise: Requested read-out IC50, target or system recombinant human integrin αVβ6 (Homo sapiens (Human), UniProt P06756+P18564), entry COCCN(CCCCc1ccc2c(n1)NCCC2)CC[C@H](Nc1ncnc2cc(Cl)ccc12)C(=O)O
Solution: 50 to 250 nM
